Collected literature values of pIC50 measured for Receptor tyrosine-protein kinase erbB-2 (Homo sapiens).
pIC50: −log10 of the molar value.
test readout: pIC50

Below are worked cases with known answers.
- molecule smiles: "CS(=O)(=O)CCOCc1ccc(-c2ccc3ncnc(Nc4ccc(OCc5cccc(F)c5)c(Cl)c4)c3c2)o1"
  pIC50: 7.77
- molecule smiles: "CN1CCN(CC(=O)Nc2ccc3ncnc(Nc4ccc(OCc5cccc(F)c5)c(Cl)c4)c3c2)CC1"
  pIC50: 8.21
- molecule smiles: "O=C(Cc1cccc(Br)c1)NS(=O)(=O)c1ccc(Br)cc1"
  pIC50: 4.56
- molecule smiles: "O=C(/C=C/c1cccc(-c2ccc3ncnc(Nc4ccc(OCc5cccc(F)c5)c(Cl)c4)c3c2)c1)NO"
  pIC50: 7.96

(1) CS(=O)(=O)NCCNCc1ccc(-c2ccc3ncnc(Nc4ccc(OCc5cccc(F)c5)c(Cl)c4)c3c2)o1
(2) C=CC(=O)Nc1cc2c(Nc3ccc(F)c(Cl)c3)ncnc2cc1OCc1cn(CCCC(=O)NO)nn1
(3) CCCCN(Cc1cc(Cl)cc(Cl)c1O)C(=S)Nc1ccccc1
(4) COC(=O)N1CCC[C@@H]1C#Cc1cc2ncnc(Nc3ccc(OCc4cccc(F)c4)c(Cl)c3)c2s1
(5) C=C1[C@H](C)CCC[C@]1(C)CC/C(C)=C/CC1=C(O)C(=O)C=C(N[C@@H](C(=O)O)[C@@H](C)O)C1=O
Hey, quick one: sort these by pIC50, largest value first please. Kindly provide the labels arranged according to the requested ordering.
2, 1, 4, 3, 5
